test_target: hCMV gH + gL + UL128 + UL130 + UL131A (co-expressed in HEK293T cells) (human cytomegalovirus), P12824
experiment: competitor: 6G4-biotin; cell staining
condition_details: remark: other sources report otherwise
parameter_measured: Inhibition of binding (%)
Numbers only here, please. The scale is %.

Use these answered entries as a reference point.
8C15 (antibody, V domains shown) VH: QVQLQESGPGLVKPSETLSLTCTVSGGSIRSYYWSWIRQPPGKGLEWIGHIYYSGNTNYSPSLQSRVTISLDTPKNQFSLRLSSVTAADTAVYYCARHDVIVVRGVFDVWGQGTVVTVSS VL: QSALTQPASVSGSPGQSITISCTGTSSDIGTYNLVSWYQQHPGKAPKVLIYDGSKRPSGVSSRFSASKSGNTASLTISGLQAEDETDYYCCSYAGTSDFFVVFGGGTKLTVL; 100
7I13 (antibody, V domains shown) VH: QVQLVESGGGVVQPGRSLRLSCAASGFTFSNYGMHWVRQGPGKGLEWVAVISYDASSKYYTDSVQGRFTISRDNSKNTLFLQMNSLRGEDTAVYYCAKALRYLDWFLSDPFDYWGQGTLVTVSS VL: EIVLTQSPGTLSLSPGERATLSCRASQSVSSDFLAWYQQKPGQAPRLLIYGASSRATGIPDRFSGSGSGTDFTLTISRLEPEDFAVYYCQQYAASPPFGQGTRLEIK; 0

Now for a further binder.
**Q:** Recorded Inhibition of binding (%) of 9I6 (antibody, V domains shown) VH: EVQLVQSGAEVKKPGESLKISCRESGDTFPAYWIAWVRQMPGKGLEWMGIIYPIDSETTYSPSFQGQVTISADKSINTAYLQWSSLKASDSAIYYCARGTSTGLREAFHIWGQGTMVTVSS VL: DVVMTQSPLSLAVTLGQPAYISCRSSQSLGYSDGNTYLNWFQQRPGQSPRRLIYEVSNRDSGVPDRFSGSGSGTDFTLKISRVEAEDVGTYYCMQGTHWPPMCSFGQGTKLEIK , please.
**A:** 100
